Hello, the source for this data is patent US11371056B2, in case you need it.

tested on: Pseudomonas fluorescens HPPD polypeptide (wild-type and mutants); assay: Coupled HPPD activity assay: turnover and residual turnover in crude HPPD polypeptide extracts with and without Cmpd. 1; format: biochemical; conditions: presence of 100 μM Cmpd. 1; changes in absorbance (OD) at 320 nm in the coupled assay, 30 min
# Residual turnover per record follows
recorded metric: Residual turnover

molecule: SEQ ID NO:21 (protein, mutant HPPD polypeptide) MADLYENPMGLMGFEFIEFASPTPGTLEPIFEIMGFTKVATHRSKNVHLYRQGEINLILNNEPNSIASYFAAEHGPSVCGMAFRVKDSQKAYNRALELGAQPIHIDTGPMELNLPAIKGIGGAPLYLIDRFGEGSSIYDIDFVYLEGVERNPVGAGLKVIDHLTHNVYRGRMVYWANFYEKLFNFREARYFDIKGEYTGLTSKAMSAPDGMIRIPLNEESSKGAGQIEEFLMQFNGEGIQHVAFLTDDLVKTWDALKKIGMRFMTAPGDEYYEMLEGRLPDHGEPVDQLQARGILLDGSSVEGDKRLLLQIFSETLMGPVFFEFIQRKGDDGFGPDSFKVLFEQMERDQVRRGVLTAD
reported result: 0.082

molecule: SEQ ID NO:54 (protein, mutant HPPD polypeptide) MADLYENPMGLMGFEFIEFASPTPGTLEPIFEIMGFTKVATHRSKNVHLYRQGEINLILNNEPNSIASYFAAEHGPSVCGMAFRVKDSQKAYNRALELGAQPIHIDTGPMELNLPAIKGIGGAPLYLIDRFGEGSSIYDIDFVYLEGVERNPVGAGLKVIDHLTHNVYRGRMVYWANFYEKLFNFREARYFDIKGEYTGLTSKAMSAPDGMIRIPLNEESSKGAGQIEEFLMQFNGEGIQHVAFLTDDLVKTWDALKKIGMRFLTAPGDEYYEMLEGRLPDHGEPVDQLQARGILLDGSSVEGDKRLLLQIFSEKLMGPVFFEFIQRKGDDGFGPHSFKVLFEQMERDQVRRGVLTAD
reported result: 0.224

molecule: SEQ ID NO:8 (protein, mutant HPPD polypeptide) MADLYENPMGLMGFEFIEFASPTPGTLEPIFEIMGFTKVATHRSKNVHLYRQGEINLILNNEPNSIASYFAAEHGPSVCGMAFRVKDSQKAYNRALELGAQPIHIDTGPMELNLPAIKGIGGAPLYLIDRFGEGSSIYDIDFVYLEGVERNPVGAGLKVIDHLTHNVYRGRMVYWANFYEKLFNFREARYFDIKGEYTGLTSKAMSAPDGMIRIPLNEESSKGAGQIEEFLMQFNGEGIQHVAFLTDDLVKTWDALKKIGMRFLTAPGDEYYEMLEGRLPDHGEPVDQLQARGILLDGSSVEGDKRLLLQIFSEQLMGPVFFEFIQRKGDDGFGPDSFKVLFESIERDQVRRGVLTAD
reported result: 0.082

molecule: SEQ ID NO:34 (protein, mutant HPPD polypeptide) MADLYENPMGLMGFEFIEFASPTPGTLEPIFEIMGFTKVATHRSKNVHLYRQGEINLILNNEPNSIASYFAAEHGPSVCGMAFRVKDSQKAYNRALELGAQPIHIDTGPMELNLPAIKGIGGAPLYLIDRFGEGSSIYDIDFVYLEGVERNPVGAGLKVIDHLTHNVYRGRMVYWANFYEKLFNFREARYFDIKGEYTGLTSKAMSAPDGMIRIPLNEESSKGAGQIEEFLMQFNGEGIQHVAFLTDDLVKTWDALKKIGMRFMTAPGDEYYEMLEGRLPDHGEPVDQLQARGILLDGSSVEGDKRLLLQIFSETLMGPVFFEFIQRKGDDGFGPHSFKVLFESMERDQVRRGVLTAD
reported result: 0.148
